B1: library; a variant is named by its letters at N, in order (parent)
chain: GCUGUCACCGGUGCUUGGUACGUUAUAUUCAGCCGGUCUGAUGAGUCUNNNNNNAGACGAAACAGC

Variants of: B1
Test Summary: normalized RNA/DNA level without ligand (relative to sTRSVctl = 100) (log10 (% of sTRSVctl)); HEK293T overexpressing SLC46A1; higher = less ribozyme self-cleavage, higher mRNA level
Test Parameters: without (6R,S)-folinic acid; ligand present: no
Measured normalized RNA/DNA level without ligand (log10) accompanies every entry in the list below.
Endpoint Label: normalized RNA/DNA level without ligand (log10)

Seq Text: GCUGUCACCGGUGCUUGGUACGUUAUAUUCAGCCGGUCUGAUGAGUCUAAUAUGAGACGAAACAGC [AAUAUG]
Endpoint Value: 1.9
//
Seq Text: GCUGUCACCGGUGCUUGGUACGUUAUAUUCAGCCGGUCUGAUGAGUCUCCGUUGAGACGAAACAGC [CCGUUG]
Endpoint Value: 1.99
//
Seq Text: GCUGUCACCGGUGCUUGGUACGUUAUAUUCAGCCGGUCUGAUGAGUCUGUACGUAGACGAAACAGC [GUACGU]
Endpoint Value: 1.99
//
Seq Text: GCUGUCACCGGUGCUUGGUACGUUAUAUUCAGCCGGUCUGAUGAGUCUUAUUCCAGACGAAACAGC [UAUUCC]
Endpoint Value: 1.97
//
Seq Text: GCUGUCACCGGUGCUUGGUACGUUAUAUUCAGCCGGUCUGAUGAGUCUGCGUGAAGACGAAACAGC [GCGUGA]
Endpoint Value: 2
//
Seq Text: GCUGUCACCGGUGCUUGGUACGUUAUAUUCAGCCGGUCUGAUGAGUCUUUUCCUAGACGAAACAGC [UUUCCU]
Endpoint Value: 2.06
//
Seq Text: GCUGUCACCGGUGCUUGGUACGUUAUAUUCAGCCGGUCUGAUGAGUCUCUUUUGAGACGAAACAGC [CUUUUG]
Endpoint Value: 2.04
//
Seq Text: GCUGUCACCGGUGCUUGGUACGUUAUAUUCAGCCGGUCUGAUGAGUCUGGGAAAAGACGAAACAGC [GGGAAA]
Endpoint Value: 1.99
//
Seq Text: GCUGUCACCGGUGCUUGGUACGUUAUAUUCAGCCGGUCUGAUGAGUCUACCAGUAGACGAAACAGC [ACCAGU]
Endpoint Value: 2
//
Seq Text: GCUGUCACCGGUGCUUGGUACGUUAUAUUCAGCCGGUCUGAUGAGUCUGCUCAAAGACGAAACAGC [GCUCAA]
Endpoint Value: 1.98
//
Seq Text: GCUGUCACCGGUGCUUGGUACGUUAUAUUCAGCCGGUCUGAUGAGUCUGGCUUUAGACGAAACAGC [GGCUUU]
Endpoint Value: 2.08
//
Seq Text: GCUGUCACCGGUGCUUGGUACGUUAUAUUCAGCCGGUCUGAUGAGUCUAAUGCGAGACGAAACAGC [AAUGCG]
Endpoint Value: 1.84
//
Seq Text: GCUGUCACCGGUGCUUGGUACGUUAUAUUCAGCCGGUCUGAUGAGUCUUCGGGCAGACGAAACAGC [UCGGGC]
Endpoint Value: 2.06
